Hey, just so you know, these numbers are from ChEMBL document CHEMBL1122774.

# Test system: Canis familiaris
# EXPERIMENT_SUMMARY: Renal vasodilator activity in anesthetized dogs and percent change in renal vascular resistance (RVR) was determined at 30 ug/kg min
# Type: functional, Canis lupus familiaris
Square brackets hold non-standard residues; d marks the D form. Peptide text beside a SMILES is read from it. * marks the point of attachment. ξ: configuration not given here. Hydrocinnamoyl = O=C(CCc1ccccc1)*; pNA = O=[N+]([O-])c1ccc(N*)cc1; ξαMeF = CC(N)(Cc1ccccc1)C(=O)O; Bz = O=C(c1ccccc1)*
TEST_READOUT: Change

Query: Which measured Change belongs to CC(Cc1ccccc1)(NC(=O)[C@@H]1CCCN1C(=O)CCc1ccccc1)C(=O)N[C@@H](CCCN=C(N)N)C(=O)O (some centres not stated) (Hydrocinnamoyl-Pro-[ξαMeF]-Arg-OH) , tested on Canis familiaris?
Response: -5%

Query: Which measured Change belongs to CC(Cc1ccccc1)(NC(=O)[C@@H]1CCCN1)C(=O)N[C@@H](CCCN=C(N)N)C(=O)O (some centres not stated) (H-Pro-[ξαMeF]-Arg-OH) , tested on Canis familiaris?
Response: -7.3%

Query: Which measured Change belongs to CC(Cc1ccccc1)(NC(=O)[C@@H]1CCCN1C(=O)CCCc1ccc(O)cc1)C(=O)N[C@@H](CCCN=C(N)N)C(=O)O (some centres not stated) , tested on Canis familiaris?
Response: -9%

Query: Which measured Change belongs to N=C(N)NCCC[C@H](NC(=O)[C@H](Cc1ccccc1)NC(=O)[C@@H]1CCCN1)C(=O)O (H-Pro-Phe-Arg-OH) , tested on Canis familiaris?
Response: -2%

Query: Which measured Change belongs to CC(Cc1ccccc1)(NC(=O)[C@@H]1CCCN1C(=O)CCCc1ccccc1)C(=O)N[C@@H](CCCN=C(N)N)C(=O)O (some centres not stated) , tested on Canis familiaris?
Response: -1.8%

Query: Which measured Change belongs to N=C(N)NCCC[C@H](NC(=O)[C@H](Cc1ccccc1)NC(=O)[C@@H]1CCCN1C(=O)c1ccccc1)C(=O)Nc1ccc([N+](=O)[O-])cc1 (Bz-Pro-Phe-Arg-pNA) , tested on Canis familiaris?
Response: -3%

Query: Which measured Change belongs to N=C(N)NCCC[C@H](NC(=O)[C@H](Cc1ccccc1)NC(=O)[C@@H]1CCCN1C(=O)c1ccccc1)C(=O)O (Bz-Pro-Phe-Arg-OH) , tested on Canis familiaris?
Response: 0%

====

Consider the following compounds; for each one, report its Change.
# Tested on: Canis familiaris
# EXPERIMENT_SUMMARY: In vivo percent change in canine renal vascular resistance (RVR) at 300 ug/Kg/min.
# Type: functional, Canis lupus familiaris
Square brackets hold non-standard residues; d marks the D form. Peptide text beside a SMILES is read from it. * marks the point of attachment. ξ: configuration not given here. ξαMeF = CC(N)(Cc1ccccc1)C(=O)O; Bz = O=C(c1ccccc1)*
Reply with just the number (in %).

Query: So what's the measured Change for this one? COc1ccc(CC(C)(NC(=O)[C@@H]2CCCN2C(=O)CCCc2ccc(O)cc2)C(=O)NCCCN)cc1OC.Cl (some centres undefined)
Response: -10

Query: So what's the measured Change for this one? CC(Cc1ccccc1)(NC(=O)[C@@H]1CCCN1C(=O)c1ccccc1)C(=O)N[C@@H](CCCN=C(N)N)C(=O)O (some centres undefined) (Bz-Pro-[ξαMeF]-Arg-OH)
Response: 0

Query: So what's the measured Change for this one? CC(CN[C@@H](CCCN=C(N)N)C(=O)O)(Cc1ccccc1)NC(=O)[C@@H]1CCCN1C(=O)CCCc1ccccc1 (some centres undefined)
Response: -4

Query: So what's the measured Change for this one? Cl.NCCCNC(=O)[C@H](Cc1ccccc1)NC(=O)[C@@H]1CCCN1C(=O)CCCc1ccccc1
Response: -8.9

====

# Tested on: Canis familiaris
# EXPERIMENT_SUMMARY: In vivo percent change in canine heart rate at 30 ug/Kg/min.
# Type: functional, Canis lupus familiaris
Square brackets hold non-standard residues; d marks the D form. Peptide text beside a SMILES is read from it. * marks the point of attachment. ξ: configuration not given here. Butanoyl(4-(4-HOPh)) = O=C(CCCc1ccc(O)cc1)*; ξαMeY = CC(N)(Cc1ccc(O)cc1)C(=O)O; ξαMeF = CC(N)(Cc1ccccc1)C(=O)O; Bz = O=C(c1ccccc1)*
Consider the following compounds; for each one, report its Change.
Reply with just the number (in %).

Query: So what's the measured Change for this one? CC(CN[C@@H](CCCN=C(N)N)C(=O)O)(Cc1ccccc1)NC(=O)[C@@H]1CCCN1C(=O)CCCc1ccccc1 (some centres undefined)
Response: -7

Query: So what's the measured Change for this one? CC(Cc1ccccc1)(NC(=O)[C@@H]1CCCN1C(=O)c1ccccc1)C(=O)N1CCC[C@H]1C(=O)O (some centres undefined) (Bz-Pro-[ξαMeF]-Pro-OH)
Response: -6

Query: So what's the measured Change for this one? COc1ccc(CC(C)(NC(=O)[C@@H]2CCCN2C(=O)CCCc2ccc(O)cc2)C(=O)NCCCN)cc1OC.Cl (some centres undefined)
Response: -1

Query: So what's the measured Change for this one? CC(Cc1ccccc1)(NC(=O)[C@@H]1CCCN1C(=O)CCCc1ccc(O)cc1)C(=O)NCCCCCC(=O)O (some centres undefined)
Response: -2

Query: So what's the measured Change for this one? Cl.NCCCNC(=O)[C@H](Cc1ccccc1)NC(=O)[C@@H]1CCCN1C(=O)CCCc1ccccc1
Response: 0

Query: So what's the measured Change for this one? COc1ccc(CC(C)(NC(=O)[C@@H]2CCCN2C(=O)CCCc2ccc(O)cc2)C(=O)N[C@@H](CCCN=C(N)N)C(=O)O)cc1OC (some centres undefined)
Response: 6.3

Query: So what's the measured Change for this one? CC(Cc1ccccc1)(NC(=O)[C@@H]1CCCN1C(=O)CC12CC3CC(CC(C3)C1)C2)C(=O)N[C@@H](CCCN=C(N)N)C(=O)O (some centres undefined)
Response: 0.5

Query: So what's the measured Change for this one? CC(CN[C@@H](CCCN=C(N)N)C(=O)O)(Cc1ccccc1)NC(=O)[C@@H]1CCCN1 (some centres undefined)
Response: 4

Query: So what's the measured Change for this one? CC(Cc1ccc(O)cc1)(NC(=O)[C@@H]1CCCN1C(=O)CCCc1ccc(O)cc1)C(=O)NCC(=O)N1CCC[C@H]1C(=O)O (some centres undefined) ({Butanoyl(4-(4-HOPh))}-P[ξαMeY]GP-OH)
Response: 0

Query: So what's the measured Change for this one? O=C(NCC(=O)N1CCC[C@H]1C(=O)O)[C@@H](Cc1ccccc1)NC(=O)[C@@H]1CCCN1C(=O)CCCc1ccc(O)cc1 ({Butanoyl(4-(4-HOPh))}-P[dF]GP-OH)
Response: -2

Query: So what's the measured Change for this one? O=C(NCC(=O)N1CCC[C@H]1C(=O)O)[C@H](Cc1ccccc1)NC(=O)[C@@H]1CCCN1C(=O)CCCc1ccc(O)cc1 ({Butanoyl(4-(4-HOPh))}-PFGP-OH)
Response: -1.5

Query: So what's the measured Change for this one? CC(Cc1ccccc1)(NC(=O)[C@@H]1CCCN1C(=O)c1ccccc1)C(=O)N[C@@H](CCCN=C(N)N)C(=O)O (some centres undefined) (Bz-Pro-[ξαMeF]-Arg-OH)
Response: 3

Query: So what's the measured Change for this one? N=C(N)NCCC[C@H](NC[C@H](Cc1ccccc1)NC(=O)[C@@H]1CCCN1)C(=O)O
Response: 0

Query: So what's the measured Change for this one? Cl.Cl.NCCCNC(=O)[C@H](Cc1ccccc1)NC(=O)[C@@H]1CCCN1
Response: -1

====

# Test system: Canis familiaris
# EXPERIMENT_SUMMARY: In vivo percent change in canine renal blood flow (RBF) at 300 ug/Kg/min.
# Assay type: functional, Canis lupus familiaris, Kidney
Square brackets hold non-standard residues; d marks the D form. Peptide text beside a SMILES is read from it. * marks the point of attachment. ξ: configuration not given here. Butanoyl(4-(4-HOPh)) = O=C(CCCc1ccc(O)cc1)*; ξαMeY = CC(N)(Cc1ccc(O)cc1)C(=O)O
Consider the following compounds; for each one, report its Change.
Reply with just the number (in %).

Query: Which measured Change belongs to CC(Cc1ccccc1)(NC(=O)[C@@H]1CCCN1C(=O)CCCc1ccc(O)cc1)C(=O)NCCCCCC(=O)O (some centres not stated) , tested on Canis familiaris?
Response: 5

Query: Which measured Change belongs to COc1ccc(CC(C)(NC(=O)[C@@H]2CCCN2C(=O)CCCc2ccc(O)cc2)C(=O)N[C@@H](CCCN=C(N)N)C(=O)O)cc1OC (some centres not stated) , tested on Canis familiaris?
Response: 29.5

Query: Which measured Change belongs to CC(CN[C@@H](CCCN=C(N)N)C(=O)O)(Cc1ccccc1)NC(=O)[C@@H]1CCCN1C(=O)CCCc1ccccc1 (some centres not stated) , tested on Canis familiaris?
Response: 4

Query: Which measured Change belongs to CC(Cc1ccc(O)cc1)(NC(=O)[C@@H]1CCCN1C(=O)CCCc1ccc(O)cc1)C(=O)NCC(=O)N1CCC[C@H]1C(=O)O (some centres not stated) ({Butanoyl(4-(4-HOPh))}-P[ξαMeY]GP-OH) , tested on Canis familiaris?
Response: 9

Query: Which measured Change belongs to COc1ccc(CC(C)(NC(=O)[C@@H]2CCCN2C(=O)CCCc2ccc(O)cc2)C(=O)NCCCN)cc1OC.Cl (some centres not stated) , tested on Canis familiaris?
Response: 10.5

Query: Which measured Change belongs to COc1ccc(CC(C)(NC(=O)[C@@H]2CCCN2C(=O)CCCc2ccccc2)C(=O)N[C@@H](CCCN=C(N)N)C(=O)O)cc1OC (some centres not stated) , tested on Canis familiaris?
Response: 5

Query: Which measured Change belongs to CC(Cc1ccccc1)(NC(=O)[C@@H]1CCCN1C(=O)CCCc1ccccc1)C(=O)NCCCN.Cl (some centres not stated) , tested on Canis familiaris?
Response: 10
